- system_name: UniProt P51685
- Sequence (P51685 whole entry, the tested form may be a part): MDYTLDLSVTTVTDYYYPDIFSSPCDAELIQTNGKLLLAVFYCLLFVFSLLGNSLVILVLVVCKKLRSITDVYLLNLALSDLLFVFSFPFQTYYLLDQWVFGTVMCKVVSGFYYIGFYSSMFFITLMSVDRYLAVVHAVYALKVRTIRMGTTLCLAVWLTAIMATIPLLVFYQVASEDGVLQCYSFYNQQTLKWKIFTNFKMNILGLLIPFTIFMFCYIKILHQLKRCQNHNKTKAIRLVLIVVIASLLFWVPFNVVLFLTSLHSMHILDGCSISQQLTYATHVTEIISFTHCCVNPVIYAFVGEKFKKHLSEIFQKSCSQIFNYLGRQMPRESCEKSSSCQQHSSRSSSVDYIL
- test_details: Tango assay (Tango-CCR8-Gal4-CHO-K1 cells, CCL1-stimulated, ONE-Glo luminescence)
- measurement_parameters: Tango Assay IC50, Inhibition of CCR8 Tango cell in vitro
Where a name gives a salt, the structure may show the parent alone.
measured_property: pIC50
Schema: pIC50 number; meaning minus log10 of the concentration expressed in molar units.

Req: What measured pIC50 is associated with Cc1ccccc1C(=O)Nc1c(C)cc(S(=O)(=O)N[C@H](C)C2CCNCC2)cc1Cl [Compound 180A, hydrochloride] on UniProt P51685?
Resp: 8.05
